# System: EBC-1 (Squamous Cell Lung Carcinoma)
# experiment notes: combination Emax (second highest fraction inhibited in the dose matrix, 72 h); higher = more inhibition; extreme values may be limits of the assay
Recorded combination Emax, one value per entry.
Provide a numeric answer; units are not to be included.

Record excerpt, results attached:
| compound | measurement |
| --- | --- |
| NC1(C(=O)N[C@@H](CCO)c2ccc(Cl)cc2)CCN(c2ncnc3[nH]ccc23)CC1 [Capivasertib] + C[C@@H]1COCCN1C2=NC(=NC(=C2)C3(CC3)[S@](=N)(=O)C)C4=C5C=CNC5=NC=C4 [AZD6738] (first compound max 10 µM, 7x7, partner max 10 µM) | 0.601 |
| CC(=O)c1c(C)c2cnc(Nc3ccc(N4CCNCC4)cn3)nc2n(C2CCCC2)c1=O [Palbociclib] + CN(CC[C@H](CSC1=CC=CC=C1)NC2=C(C=C(C=C2)S(=O)(=O)NC(=O)C3=CC=C(C=C3)N4CCC(CC4)[C@H](C5=CC=CC=C5C6=CC=C(C=C6)Cl)O)S(=O)(=O)C(F)(F)F)CCO [AZD4320] (first compound max 10 µM, 7x7, partner max 1 µM) | 0.875 |

Now consider the entry below.
Exam item: Consider the compound Cc1cc2ncnn2cc1Nc1ncc2c(n1)n(C1CCOCC1)c(=O)n2C [AZD7648] + O=C(c1cc(Cc2n[nH]c(=O)c3ccccc23)ccc1F)N1CCN(C(=O)C2CC2)CC1 [Olaparib] (first compound max 10 µM, 7x7, partner max 10 µM) and give its measured combination Emax.
Marked response: 0.202

* * *

# Test system: HSC-2 (Oral Cavity Carcinoma);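 also: after 72 h of two-drug dosing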
# experiment notes: Bliss excess, mean over the matrix (fraction); higher = more synergy
Measured Bliss excess by item
Answer using only a numeral; do not append any unit.

| compound | Bliss excess |
| --- | --- |
| CS(=O)(=O)CCNCc1ccc(-c2ccc3ncnc(Nc4ccc(OCc5cccc(F)c5)c(Cl)c4)c3c2)o1 [Lapatinib] + C[C@@H](Oc1cc(-c2cnn(C3CCNCC3)c2)cnc1N)c1c(Cl)ccc(F)c1Cl [Crizotinib] (first compound max 10 µM, 7x7, partner max 10 µM) | 0.0028 |
| Cn1cnc2c(F)c(Nc3ccc(Br)cc3Cl)c(C(=O)NOCCO)cc21 [Selumetinib] + CCN(CCO)CCCOc1ccc2c(Nc3cc(CC(=O)Nc4cccc(F)c4)[nH]n3)ncnc2c1 [AZD2811] (first compound max 10 µM, 7x7, partner max 1 µM) | -0.0278 |

Turning now to a further compound:
Exam item: Report Bliss excess for C[C@@H](c1ccc2nccn2c1)n1nnc2ncc(-c3cnn(C)c3)nc21 [Savolitinib] + CC1(C)CCC(CN2CCN(c3ccc(C(=O)NS(=O)(=O)c4ccc(NCC5CCOCC5)c([N+](=O)[O-])c4)c(Oc4cnc5[nH]ccc5c4)c3)CC2)=C(c2ccc(Cl)cc2)C1 [Venetoclax] (first compound max 1 µM, 7x7, partner max 1 µM) please.
Marked response: 0.0064

* * *

Listed next: entries and their corresponding combination Emax.
# Tested on: KLE (Endometrial Carcinoma)
# experiment notes: combination Emax (second highest fraction inhibited in the dose matrix, 72 h); higher = more inhibition; extreme values may be limits of the assay
Number only, please.

| molecule | combination Emax |
| --- | --- |
| CC1(C)CCC(CN2CCN(c3ccc(C(=O)NS(=O)(=O)c4ccc(NCC5CCOCC5)c([N+](=O)[O-])c4)c(Oc4cnc5[nH]ccc5c4)c3)CC2)=C(c2ccc(Cl)cc2)C1 [Venetoclax] + C=CCn1c(=O)c2cnc(Nc3ccc(N4CCN(C)CC4)cc3)nc2n1-c1cccc(C(C)(C)O)n1 [AZD1775] (first compound max 1 µM, partner max 1 µM) | 0.51 |
| CC1(C)CCC(CN2CCN(c3ccc(C(=O)NS(=O)(=O)c4ccc(NCC5CCOCC5)c([N+](=O)[O-])c4)c(Oc4cnc5[nH]ccc5c4)c3)CC2)=C(c2ccc(Cl)cc2)C1 [Venetoclax] + C[C@@H](Nc1cc(F)cc(F)c1)c1cc(C(=O)N(C)C)cc2c(=O)cc(N3CCOCC3)oc12 [AZD8186] (first compound max 1 µM, 7x7, partner max 3 µM) | 0.41 |

Moving on to the next molecule.
Exam item: // returns reported combination Emax for input CC1(C)CCC(CN2CCN(c3ccc(C(=O)NS(=O)(=O)c4ccc(NCC5CCOCC5)c([N+](=O)[O-])c4)c(Oc4cnc5[nH]ccc5c4)c3)CC2)=C(c2ccc(Cl)cc2)C1 [Venetoclax] + CCN(CCO)CCCOc1ccc2c(Nc3cc(CC(=O)Nc4cccc(F)c4)[nH]n3)ncnc2c1 [AZD2811] (first compound max 1 µM, 7x7, partner max 1 µM)
Marked response: 0.273

* * *

# System: H-EMC-SS (Chondrosarcoma)
# experiment notes: combination Emax (second highest fraction inhibited in the dose matrix, 72 h); higher = more inhibition; extreme values may be limits of the assay
readout label: combination Emax

| compound | study system | combination Emax |
| --- | --- | --- |
| CN(CCO)CC[C@H](CSc1ccccc1)Nc1ccc(S(=O)(=O)NC(=O)c2ccc(N3CCC([C@@H](O)c4ccccc4-c4ccc(Cl)cc4)CC3)cc2)cc1S(=O)(=O)C(F)(F)F [AZD4320] + Nc1ccn([C@@H]2O[C@H](CO)[C@@H](O)C2(F)F)c(=O)n1 [Gemcitabine] (first compound max 1 µM, 7x7, partner max 0.3 µM) | H-EMC-SS (Chondrosarcoma) | 0.832 |

Next, consider the following compound.
Exam item: # query: combination Emax of entry C[C@@H](Nc1cc(F)cc(F)c1)c1cc(C(=O)N(C)C)cc2c(=O)cc(N3CCOCC3)oc12 [AZD8186] + CC(=O)c1c(C)c2cnc(Nc3ccc(N4CCNCC4)cn3)nc2n(C2CCCC2)c1=O [Palbociclib] (first compound max 10 µM, 7x7, partner max 10 µM)
Marked response: 0.474

* * *

combination Emax: recorded values
# Tested on: RPMI-7951 (Melanoma)
# experiment notes: combination Emax (second highest fraction inhibited in the dose matrix, 72 h); higher = more inhibition; extreme values may be limits of the assay
Please give the numeric answer without any surrounding text.

Exam item: // combination Emax lookup, key: CN(C)CCCOc1ccc(-c2ccc3ncc4c(c3c2)n(C2CCOCC2)c(=O)n4C)cn1 [AZD0156] + C=CCn1c(=O)c2cnc(Nc3ccc(N4CCN(C)CC4)cc3)nc2n1-c1cccc(C(C)(C)O)n1 [AZD1775] (first compound max 1 µM, partner max 1 µM)
Marked response: 0.687

Exam item: Requested read-out: combination Emax. Entry: Cc1c2c(nn1C)CSCc1cc(n(C)n1)CSc1cc(c3ccccc3c1)OCCCc1c(C(=O)O)n(C)c3c-2c(Cl)ccc13 [AZD5991] + CC1(C)CCC(CN2CCN(c3ccc(C(=O)NS(=O)(=O)c4ccc(NCC5CCOCC5)c([N+](=O)[O-])c4)c(Oc4cnc5[nH]ccc5c4)c3)CC2)=C(c2ccc(Cl)cc2)C1 [Venetoclax] (first compound max 1 µM, 7x7, partner max 1 µM)
Marked response: 0.903

Exam item: Which combination Emax reading was recorded for the molecule COc1cccc(OCCCN)c1-c1cc(Nc2cnc(C#N)cn2)n[nH]1 [Prexasertib] + CCc1c2c(nc3ccc(O)cc13)-c1cc3c(c(=O)n1C2)COC(=O)[C@]3(O)CC [SN-38] (first compound max 1 µM, 7x7, partner max 0.3 µM) ?
Marked response: 0.997

Exam item: So what does the record say about combination Emax for NC1(C(=O)N[C@@H](CCO)c2ccc(Cl)cc2)CCN(c2ncnc3[nH]ccc23)CC1 [Capivasertib] + C[C@@H]1COCCN1C2=NC(=NC(=C2)C3(CC3)[S@](=N)(=O)C)C4=C5C=CNC5=NC=C4 [AZD6738] (first compound max 10 µM, 7x7, partner max 10 µM) ?
Marked response: 0.892

Exam item: // combination Emax lookup, key: Cc1c2c(nn1C)CSCc1cc(n(C)n1)CSc1cc(c3ccccc3c1)OCCCc1c(C(=O)O)n(C)c3c-2c(Cl)ccc13 [AZD5991] + CN(C)CCCOc1ccc(-c2ccc3ncc4c(c3c2)n(C2CCOCC2)c(=O)n4C)cn1 [AZD0156] (first compound max 1 µM, 7x7, partner max 1 µM)
Marked response: 0.945

* * *

# Test system: KLE (Endometrial Carcinoma)
# experiment notes: combination Emax (second highest fraction inhibited in the dose matrix, 72 h); higher = more inhibition; extreme values may be limits of the assay
Measured combination Emax values are reported for all entries that follow.

| compound | combination Emax |
| --- | --- |
| COc1cccc(OCCCN)c1-c1cc(Nc2cnc(C#N)cn2)n[nH]1 [Prexasertib] + C[C@@H]1COCCN1C2=NC(=NC(=C2)C3(CC3)[S@](=N)(=O)C)C4=C5C=CNC5=NC=C4 [AZD6738] (first compound max 1 µM, 7x7, partner max 10 µM) | 0.437 |

From here, focus on the item given below.
Exam item: Endpoint output: combination Emax of COc1cccc(OCCCN)c1-c1cc(Nc2cnc(C#N)cn2)n[nH]1 [Prexasertib] + O=C(c1cc(Cc2n[nH]c(=O)c3ccccc23)ccc1F)N1CCN(C(=O)C2CC2)CC1 [Olaparib] (first compound max 1 µM, 7x7, partner max 10 µM) . Value?
Marked response: 0.431
